// reported Plant response rating, Ducksalad per item
Test system: ducksalad
Assay: Test C flooded paddy test
Assay type: in vivo, Heteranthera limosa
Settings: Flood, 62 g ai/ha; scale of 0 to 100 where 0 is no effect and 100 is complete control; 13 to 15 days
Reply briefly: the number, and no unit.

| compound | val |
| --- | --- |
| Cc1ccccc1NC(=O)C1C(=O)NCC1c1ccc(F)c(F)c1 (racemic) [Compound 19] | 0 |
| CS(=O)(=O)c1ccccc1NC(=O)C1C(=O)NCC1c1ccc(F)c(F)c1 (racemic) [Compound 21] | 0 |
| O=C1NCC(c2cccc(F)c2)C1C(=O)Nc1ccccc1C(F)(F)F (racemic) [Compound 2] | 0 |

## Input Write down Plant response rating, Ducksalad measured for item O=C1NCC(Br)(c2ccccc2)C1C(=O)Nc1ccccc1F (centres unmarked) [Compound 92]
## Output 20

## Input Write down Plant response rating, Ducksalad measured for item O=C1NCC(c2ccccc2)C1(Br)C(=O)Nc1ccccc1F (centres unmarked) [Compound 93]
## Output 0
